These data points were gathered from patent US20230203041A1.

Listed here are compounds together with their documented pKi.
target: human Adenosine A1 receptor (Homo sapiens, UniProt P30542)
Sequence (P30542 whole entry): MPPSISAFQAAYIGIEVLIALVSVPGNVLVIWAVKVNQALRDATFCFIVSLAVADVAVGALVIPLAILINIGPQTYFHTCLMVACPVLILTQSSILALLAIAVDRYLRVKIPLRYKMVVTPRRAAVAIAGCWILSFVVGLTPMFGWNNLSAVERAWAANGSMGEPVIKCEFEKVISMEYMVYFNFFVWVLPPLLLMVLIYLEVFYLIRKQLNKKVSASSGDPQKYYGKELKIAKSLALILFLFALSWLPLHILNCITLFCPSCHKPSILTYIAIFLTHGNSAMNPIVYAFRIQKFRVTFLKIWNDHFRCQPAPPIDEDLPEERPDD
pKi: −log10 of the molar value. Counter-ions that a name gives are not always drawn.

compound	pKi
COC(=O)/C=C/c1c(-c2ccco2)nn2ccc(NCc3ccccc3)nc12 [Example 54]	7.74
C[C@@H]1CN(c2ccn3nc(-c4ccco4)c(C#N)c3n2)CCN1C(=O)OC(C)(C)C [Example 37.10]	5.75
CC(C)(C)OC(=O)N1CC=C(c2ccn3nc(-c4ccco4)c(C#N)c3n2)CC1 [Example 40]	5.71
Cc1cc(-c2c(-c3cccc(C#N)c3)nn3ccc(C(=O)N4CCNCC4)nc23)cc(Cl)n1 [Example 7.12, hydrochloride]	6.34
Cc1cc(-c2c(-c3cccc(C#N)c3)nn3ccc(NCC4(O)CNC4)nc23)cc(Cl)n1 [Example 4.11, trifluoroacetate]	7.28
Cc1cc(-c2c(-c3cccc(C#N)c3)nn3ccc(C(=O)NCC4(C)COC(=O)N4)nc23)cc(C)n1 (stereo not shown) [Example 92.21]	6.54
Cc1cc(-c2c(-c3cccc(C#N)c3)nn3ccc(N)nc23)cc(Cl)n1 [Example 1.4]	7.18

====

Target protein (sequence): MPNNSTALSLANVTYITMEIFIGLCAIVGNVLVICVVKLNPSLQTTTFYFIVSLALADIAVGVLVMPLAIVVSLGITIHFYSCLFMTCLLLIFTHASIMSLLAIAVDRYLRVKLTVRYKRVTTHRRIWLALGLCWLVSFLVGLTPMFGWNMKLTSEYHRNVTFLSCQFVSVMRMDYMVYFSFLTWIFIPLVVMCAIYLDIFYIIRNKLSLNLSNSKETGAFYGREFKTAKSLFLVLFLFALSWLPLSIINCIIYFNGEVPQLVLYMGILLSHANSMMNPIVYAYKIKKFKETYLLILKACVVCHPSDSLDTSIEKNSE
pKi: −log10 of the molar value.

compound	pKi
COc1cc(-c2c(-c3cccc(C#N)c3)nn3ccc(N)nc23)cc(C)n1	5.60
Cc1cc(-c2c(-c3cccc(C#N)c3)nn3ccc(N[C@@H](C)C(C)(C)O)nc23)cc(Cl)n1	< 6.00
Cc1cc(-c2c(-c3cccc(C#N)c3)nn3ccc(N4CCC4C(=O)O)nc23)cc(Cl)n1 (centres unmarked)	< 6.00
Cc1cc(-c2c(-c3cccc(C#N)c3)nn3ccc(C(=O)NCC4CC(O)C4)nc23)cc(Cl)n1 (centres unmarked)	< 6.00
CCn1nccc1-c1c(-c2cccc(C#N)c2)nn2ccc(N3CCN(S(C)(=O)=O)CC3)nc12	< 6.00
Cc1cc(-c2c(-c3cccc(C#N)c3)nn3ccc(N[C@@H](C)C(=O)O)nc23)cc(Cl)n1	< 6.00
Cc1cc(-c2c(-c3cccc(C#N)c3)nn3ccc(C(=O)N[C@@H](C)C(C)(C)O)nc23)cc(Cl)n1	6.02
N#Cc1c(-c2ccco2)nn2ccc(NCC3CCN(Cc4ccccc4)CC3)nc12	< 6.00

====

Structures can show the parent of a compound that is named as a salt.
Here's what we have: log10 Ki numbers for human Adenosine A2b receptor (Homo sapiens, UniProt P29275).
measuredProperty: log10 Ki (log10 of the value in nM)

molecule	systemUnderTest	reportedValue
Cc1cc(-c2c(-c3cccc(C#N)c3)nn3ccc(NC(C)CN(C)C)nc23)cc(Cl)n1 (centres unmarked)	human Adenosine A2b receptor (Homo sapiens, UniProt P29275)	1.74
Cc1cc(-c2c(-c3cccc(C#N)c3)nn3ccc(N/C(=N\C#N)NCC(C)(C)O)nc23)cc(Cl)n1	human Adenosine A2b receptor (Homo sapiens, UniProt P29275)	0.70
Cc1cc(-c2c(-c3cccc(C#N)c3)nn3ccc(C(=O)NCC4(C)NC(=O)NC4=O)nc23)c(F)c(C)n1 (centres unmarked)	human Adenosine A2b receptor (Homo sapiens, UniProt P29275)	1.11
N#Cc1c(-c2ccco2)nn2ccc(NC[C@@H]3CNCCO3)nc12 [Example 42, hydrochloride]	human Adenosine A2b receptor (Homo sapiens, UniProt P29275)	3.49
Cc1cc(-c2c(-c3cccc(C#N)c3)nn3ccc(NC(=O)C(C)(C)O)nc23)cc(Cl)n1	human Adenosine A2b receptor (Homo sapiens, UniProt P29275)	0.48
Cc1cc(-c2c(-c3cccc(C#N)c3)nn3ccc(NCC(N)=O)nc23)cc(Cl)n1	human Adenosine A2b receptor (Homo sapiens, UniProt P29275)	0.30
Cc1cc(-c2c(-c3cccc(C#N)c3)nn3ccc(C(=O)NC4(C#N)CCNCC4)nc23)cc(Cl)n1 (single isomer, unassigned)	human Adenosine A2b receptor (Homo sapiens, UniProt P29275)	1.73
Cc1cc(-c2c(-c3cccc(C#N)c3)nn3ccc(CN4CCNCC4)nc23)cc(C)n1 [Example 20.1, trifluoroacetate]	human Adenosine A2b receptor (Homo sapiens, UniProt P29275)	2.80
Cc1cc(-c2c(-c3cccc(C#N)c3)nn3ccc(C(=O)N4CCNCC4)nc23)cc(Cl)n1 [Example 7.12, hydrochloride]	human Adenosine A2b receptor (Homo sapiens, UniProt P29275)	1.30
Cc1cc(-c2c(-c3cccc(C#N)c3)nn3ccc(N)nc23)cc(F)n1	human Adenosine A2b receptor (Homo sapiens, UniProt P29275)	1.20
CCn1nccc1-c1c(-c2cccc(C#N)c2)nn2ccc(N3CC4CCC(C3)O4)nc12	human Adenosine A2b receptor (Homo sapiens, UniProt P29275)	2.20
Cc1cc(-c2c(-c3cccc(C#N)c3)nn3ccc(NC(=O)NCC(C)(C)N)nc23)cc(Cl)n1 [Example 31.4, trifluoroacetate]	human Adenosine A2b receptor (Homo sapiens, UniProt P29275)	1.11
Cc1cc(-c2c(-c3cccc(C#N)c3)nn3ccc(C(=O)N[C@H]4CC[C@H](N)C4)nc23)cc(Cl)n1	human Adenosine A2b receptor (Homo sapiens, UniProt P29275)	1.51
c1coc(-c2cc3nc(NCc4nccs4)ccn3n2)c1	human Adenosine A2b receptor (Homo sapiens, UniProt P29275)	3.80
Cc1cc(-c2c(-c3cccc(C#N)c3)nn3ccc(N4CC5CCC(C4)N5C)nc23)cc(Cl)n1	human Adenosine A2b receptor (Homo sapiens, UniProt P29275)	1.65
Cc1cc(-c2c(-c3cccc(C#N)c3)nn3ccc(NC(=O)N[C@H]4CCNC4)nc23)cc(Cl)n1 [Example 31.1, trifluoroacetate]	human Adenosine A2b receptor (Homo sapiens, UniProt P29275)	1.18
Cc1cc(-c2c(-c3cccc(C#N)c3C)nn3ccc(C(=O)NCC(C)(C)O)nc23)cc(C)n1	human Adenosine A2b receptor (Homo sapiens, UniProt P29275)	1.34
Cc1cc(-c2c(-c3cccc(C#N)c3)nn3ccc(C(=O)NC(C)C4(O)COC4)nc23)cc(C)n1 (centres unmarked)	human Adenosine A2b receptor (Homo sapiens, UniProt P29275)	1.34
Cc1cc(-c2c(-c3cccc(C#N)c3)nn3ccc(C(=O)N[C@H]4C[C@@H](O)C4)nc23)cc(Cl)n1	human Adenosine A2b receptor (Homo sapiens, UniProt P29275)	1.28
Cc1cc(-c2c(-c3cccc(C#N)c3)nn3ccc(C(=O)NC4CN(C)C4)nc23)cc(Cl)n1	human Adenosine A2b receptor (Homo sapiens, UniProt P29275)	1.73
Cc1cc(-c2c(-c3cccc(C#N)c3)nn3ccc(C(=O)NCC4(O)CC4)nc23)cc(Cl)n1	human Adenosine A2b receptor (Homo sapiens, UniProt P29275)	1.00
Cc1cc(-c2c(-c3cccc(C#N)c3)nn3ccc(NC(=O)N4CCC(C)(C#N)CC4)nc23)cc(C)n1	human Adenosine A2b receptor (Homo sapiens, UniProt P29275)	1.45
CC(=O)Nc1cc(-c2c(-c3cccc(C#N)c3)nn3ccc(N)nc23)cc(C)n1	human Adenosine A2b receptor (Homo sapiens, UniProt P29275)	2.72
Cc1cc(-c2c(-c3cccc(C#N)c3)nn3ccc(NC[C@H]4COCCN4)nc23)cc(Cl)n1	human Adenosine A2b receptor (Homo sapiens, UniProt P29275)	1.40
Cc1cc(-c2c(-c3cccc(C#N)c3)nn3ccc(C(=O)NC[C@H]4CCC(=O)N4)nc23)cc(C)n1	human Adenosine A2b receptor (Homo sapiens, UniProt P29275)	1.41
N#Cc1c(-c2ccco2)nn2ccc(NC[C@H]3CCCNC3)nc12 [Example 56, hydrochloride]	human Adenosine A2b receptor (Homo sapiens, UniProt P29275)	3.43
Cc1cc(-c2c(-c3cccc(C#N)c3)nn3ccc(N[C@@H](C)CO)nc23)cc(Cl)n1	human Adenosine A2b receptor (Homo sapiens, UniProt P29275)	1.46
Cc1cc(-c2c(-c3cccc(C#N)c3)nn3ccc(C(=O)NCC(C)(O)CO)nc23)cc(Cl)n1 (centres unmarked)	human Adenosine A2b receptor (Homo sapiens, UniProt P29275)	0.30
C[C@@H]1CN(c2ccn3nc(-c4ccco4)c(C#N)c3n2)CCN1C(=O)OC(C)(C)C	human Adenosine A2b receptor (Homo sapiens, UniProt P29275)	3.70
